B1: Arginine-glutamic acid dipeptide repeats protein, residues 502 to 543; numbered along this chain, Q9P2R6 (parent)
chain: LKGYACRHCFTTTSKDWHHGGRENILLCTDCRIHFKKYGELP

- Variants of: B1
- testDescription: abundance fitness (aPCA) (normalised: wild type 0, dead -1); higher = more abundant; growth selection in yeast, the domain comes from the species named
- measurementSetup: Homo sapiens
quantity: abundance fitness

- K37H: -0.182
- L27M: -0.209
- T11K: -0.172
- C9R: -0.493
- H18Q: 0.09
- K36W: -0.147
- D30Q: -0.07
- G3E: -0.2
- T13A: -0.054
- R22S: -0.055
- R32P: -0.612
- L41T: -0.044
- R32N: -0.063
- S14L: -0.536
- I33D: 0.117
- H19E: 0.02
- G39C: -0.142
- L26W: -0.188
- G21W: -0.493
- C9K: -0.371
- T11D: -0.277
- H19G: -0.073
